Entry source: ChEMBL document CHEMBL5032505

Reported IC50 values follow for various compounds
# Method summary: Inhibition of soybean LOX using arachidonic acid as substrate incubated for 5 mins
# Design: species or system Glycine max
Report only the number, with the unit nM understood.

Worked set:
[
  {
    "Compound": "CCOC(=O)[C@H](OCc1cnnn1[C@@H](Cc1c[nH]c2ccccc12)C(=O)OC)[C@@H](OCc1cnnn1[C@@H](Cc1c[nH]c2ccccc12)C(=O)OC)C(=O)OCC",
    "IC50 / nM": 450
  },
  {
    "Compound": "CCOC(=O)[C@H](O)[C@@H](OCc1cnnn1[C@@H](Cc1ccccc1)C(=O)OC)C(=O)OCC",
    "IC50 / nM": 8000
  },
  {
    "Compound": "CC(c1cc2ccccc2s1)N(O)C(N)=O (centres undefined)",
    "IC50 / nM": 300
  }
]

Okay, next one:
IC50 for O=C(O)[C@H](OCc1cnnn1[C@@H](Cc1ccccc1)C(=O)O)[C@@H](OCc1cnnn1[C@@H](Cc1ccccc1)C(=O)O)C(=O)O ?
500
